# TEST: qHTS assay to identify small molecule antagonists of the thyroid receptor (TR) signaling pathway - cell viability counter screen (AID 743064); also: nearly all actives have a fitted effect of over 50% in size
# CONDITION: GH3.TRE-Luc viability, CellTiter-Fluor, 24 h; series mostly up to 70.3 µM
Records with an inconclusive call do not appear. Calls of active or inactive are those of the source. Calls follow the shape of the dose curve; as a rule, active = well fitted cell-killing curve with a large enough effect in the repeat runs; inconclusive = weak or mixed curves, or effect the other way; inactive = no such curve, though single readings can be large or run the other way.
Answer with one of the outcomes true (1) = active, false (0) = inactive

The following compounds have reported results that may help.
{"COMPOUND": "COc1cc(OC)c(C(=O)CCCN2CCCC2)c(OC)c1", "GROUP LABEL": "false (0)"}
{"COMPOUND": "CC(=O)CCC=C(C)C", "GROUP LABEL": "false (0)"}

Assay outcome for OC1C(O)C(O)C(O)C(O)C1O (configuration not stated) : what was it? false (0)

Test call, this compound: "CCCCCC(=O)O" false (0)

Hey, what did the test say about "CN(C)CCOC(=O)COc1ccc(Cl)cc1" ? false (0)

Short answer needed: outcome of this test for "C[C@]12CCC(=O)C=C1CC[C@@H]1[C@@H]2[C@@H](O)C[C@@]2(C)[C@H]1CC[C@]2(O)C(=O)CO" ? false (0)

What did this assay record as the result for "CCCCCCCCCCCCCCCC(=O)OC(C)C" ? false (0)

Give the logged outcome of this assay for the following compound: "CC(C)(Oc1ccc(CCNC(=O)c2ccc(Cl)cc2)cc1)C(=O)O" false (0)

Could you kindly confirm the outcome this assay logged for "CCc1ccccc1CC" ? false (0)

Hi, sorry to bother you, what did the test record for "CCCCCCCCCCCCCCCCO" ? false (0)

Every entry's value here was drawn from PubChem BioAssay (Tox21).
